Source of measurements: patent US20250248998A1

Here, each record is paired with measured Ki data.
Biological target: UniProtKB Q5S007
Sequence (Q5S007 970-2527 limits assumed): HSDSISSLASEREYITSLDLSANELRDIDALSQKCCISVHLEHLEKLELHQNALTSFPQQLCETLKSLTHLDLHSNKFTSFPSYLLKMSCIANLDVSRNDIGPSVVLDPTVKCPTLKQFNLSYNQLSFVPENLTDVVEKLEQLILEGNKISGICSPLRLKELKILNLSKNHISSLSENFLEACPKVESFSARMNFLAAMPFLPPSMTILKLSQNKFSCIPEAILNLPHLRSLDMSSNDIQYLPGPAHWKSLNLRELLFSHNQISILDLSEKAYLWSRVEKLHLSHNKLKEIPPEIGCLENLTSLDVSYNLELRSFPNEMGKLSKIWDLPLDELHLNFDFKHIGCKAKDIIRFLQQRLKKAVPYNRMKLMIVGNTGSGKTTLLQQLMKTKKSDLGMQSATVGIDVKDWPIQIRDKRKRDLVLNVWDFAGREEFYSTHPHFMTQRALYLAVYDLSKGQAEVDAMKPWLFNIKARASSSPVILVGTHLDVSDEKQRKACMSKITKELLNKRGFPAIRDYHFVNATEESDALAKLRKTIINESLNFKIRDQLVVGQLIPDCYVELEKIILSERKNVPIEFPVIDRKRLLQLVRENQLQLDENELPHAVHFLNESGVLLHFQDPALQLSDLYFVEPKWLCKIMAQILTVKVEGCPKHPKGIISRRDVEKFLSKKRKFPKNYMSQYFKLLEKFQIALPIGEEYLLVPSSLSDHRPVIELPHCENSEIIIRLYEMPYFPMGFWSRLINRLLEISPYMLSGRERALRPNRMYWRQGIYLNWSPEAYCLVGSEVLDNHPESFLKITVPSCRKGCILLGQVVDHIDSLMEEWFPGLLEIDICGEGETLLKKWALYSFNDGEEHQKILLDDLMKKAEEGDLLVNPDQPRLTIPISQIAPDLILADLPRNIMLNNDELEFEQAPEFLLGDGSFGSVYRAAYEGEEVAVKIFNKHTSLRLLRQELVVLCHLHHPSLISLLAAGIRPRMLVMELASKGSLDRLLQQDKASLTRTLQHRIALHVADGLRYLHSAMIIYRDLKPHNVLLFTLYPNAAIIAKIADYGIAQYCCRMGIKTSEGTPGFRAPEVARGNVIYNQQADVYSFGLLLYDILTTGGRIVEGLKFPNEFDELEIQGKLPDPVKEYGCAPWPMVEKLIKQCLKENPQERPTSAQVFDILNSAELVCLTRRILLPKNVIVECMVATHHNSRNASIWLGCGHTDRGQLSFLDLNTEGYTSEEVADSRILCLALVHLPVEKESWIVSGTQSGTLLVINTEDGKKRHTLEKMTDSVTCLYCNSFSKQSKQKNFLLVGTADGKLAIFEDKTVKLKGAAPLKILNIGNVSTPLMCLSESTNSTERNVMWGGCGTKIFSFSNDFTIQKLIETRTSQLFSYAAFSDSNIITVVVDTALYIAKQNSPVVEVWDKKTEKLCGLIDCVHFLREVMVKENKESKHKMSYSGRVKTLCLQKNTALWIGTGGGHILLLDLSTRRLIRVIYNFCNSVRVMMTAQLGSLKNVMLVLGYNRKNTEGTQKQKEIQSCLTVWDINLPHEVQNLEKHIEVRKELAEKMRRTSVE
Assay: Enzymatic activity inhibition against LRRK2 WT (ADP-Glo kinase assay, LRRKtide substrate)
Settings: recombinant LRRK2 WT 36 nM, ATP, 1 h at rt, average Ki

// known answers, use as guide
# compound, Ki
data = [
    ("Cn1nc(-c2n[nH]c3ccc(OC(F)F)cc23)cc(N2CCOCC2)c1=O [Compound 32]", "> 0.1 µM"),
    ("CC(C)Oc1ccc2[nH]nc(-c3cc(N4CCOCC4)c(=O)n(C4CCCC4)n3)c2c1 [Compound 16]", "≤ 0.01 µM"),
    ("Cc1nnc(-c2n[nH]c3ccc(OC(C)C)cc23)cc1N1CCOCC1 [Compound 10]", "≤ 0.01 µM"),
]

Looking for the measured Ki of C[C@@H]1CN(c2cc(-c3n[nH]c4ccc(OC5(C)CC5)cc34)nn(C3CC3)c2=O)C[C@H](C)O1 [Compound 51] , can you help?
≤ 0.01 µM

Reported Ki for CC1CCN(c2cc(-c3n[nH]c4ccc(OC(C)C)cc34)cnn2)C1 (centres unmarked) [Compound 3] : what is it?
≤ 0.01 µM
